Items are presented alongside their recorded HC50 at 1 h.
assay: Hemolytic activity in sheep RBC incubated for 1 hr by absorbance based analysis; type: toxicity, cell-based, Ovis aries, Erythrocyte; conditions: sheep red blood cells
The reply should contain only the number, in µg/mL.

The cases that follow already have their HC50 at 1 h on record.
>>> recorded_result("CCCCCCNC(=O)C[N+](C)(C)CCOc1ccccc1Oc1ccc(C(=O)CC)cc1.[Br-]")
918
>>> recorded_result("C=CCc1cccc(Oc2ccc(C(=O)CC)cc2)c1OCCCC[N+](C)(C)CC(=O)N(CCCC)CCCC.[Br-]")
776
>>> recorded_result("C=CCc1cccc(Oc2ccc(C(=O)CC)cc2)c1OCC[N+](C)(C)CC(=O)N(CCCC)CCCC.[Br-]")
834

Fill in: HC50 at 1 h of C=CCc1cccc(Oc2ccc(C(=O)CC)cc2)c1OCC[N+](C)(C)CC(=O)N1CCCC1.[Br-] is ___
543

Entry C=CCc1cccc(Oc2ccc(C(=O)CC)cc2)c1OCCCC[N+](C)(C)CC(=O)NCC.[Br-] has what HC50 at 1 h?
785

Any idea what its HC50 at 1 h is? The compound is C=CCc1cccc(Oc2ccc(C(=O)CC)cc2)c1OCCCC[N+](C)(C)CC(=O)NCCCCC.[Br-]
564

Form field: reported HC50 at 1 h of C=CCc1cccc(Oc2ccc(C(=O)CC)cc2)c1OCC[N+](C)(C)CC(=O)NCCC.[Br-]
634
